Some compounds, each annotated with its measured BUN.
species: Rattus norvegicus; test: Open TG-GATES - Regimen: Daily Repeat; format: toxicity, organism-based, Sprague-Dawley; parameters: regimen Daily Repeat, gender Male, age 6 weeks; settings: in vivo, po, 0 mg/kg, […], tissue Plasma, route gavage, dose level Control, time 7 day
State the answer as a number, implicitly in mg/dL.

// solved cases for BUN follow
- C[C@H]1O[C@H](O[C@H]2[C@H](O)[C@@H](O)[C@@H](O[C@H]3[C@H](O)[C@@H](O)C(O)O[C@@H]3CO)O[C@@H]2CO)[C@H](O)[C@@H](O)[C@@H]1N[C@H]1C=C(CO)[C@@H](O)[C@H](O)[C@H]1O (some centres undefined): 16.4
- C[C@H]1C(=O)O[C@@H]2CCN3CC=C(COC(=O)[C@](C)(O)[C@]1(C)O)[C@H]23: 18
- O=[N+]([O-])c1ccc(O)c([N+](=O)[O-])c1: 18.2
- Cc1cccc(C)c1OCC(C)N (centres undefined): 20.4
- O=C1CN(/N=C/c2ccc([N+](=O)[O-])o2)C(=O)N1: 16.4
- C=C(C)[C@H]1Cc2c(ccc3c2O[C@@H]2COc4cc(OC)c(OC)cc4[C@@H]2C3=O)O1: 19
- CCOC(=O)C(C)(C)Oc1ccc(Cl)cc1 [CLOFIBRATE]: 16.6
- Cn1cc[nH]c1=S: 17.2

We now examine a further compound.
[in] So what's the measured BUN for this one? OCCN1CCN(CCCN2c3ccccc3Sc3ccc(C(F)(F)F)cc32)CC1
[out] 18.4
